Biological target: T1, Eukaryotic initiation factor 4E (eIF4E), full-length human (human, UniProt P06730 1-217)
T1 construct: eIF4E, human, full length
T1 sequence (P06730 whole entry): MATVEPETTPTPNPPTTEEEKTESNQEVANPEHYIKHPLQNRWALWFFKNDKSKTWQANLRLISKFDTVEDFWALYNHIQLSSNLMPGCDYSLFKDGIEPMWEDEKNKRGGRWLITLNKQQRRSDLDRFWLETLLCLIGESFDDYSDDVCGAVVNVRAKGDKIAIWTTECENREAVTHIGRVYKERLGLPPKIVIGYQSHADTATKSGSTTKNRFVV
Assay: SPR; eIF4E amine coupled to a CM5 chip (about 1000 RU, m7GTP present at immobilisation), peptides injected; 10 mM Hepes pH 7.6, 0.15 M NaCl, 1 mM DTT, 0.1% Tween20, 3% DMSO; Biacore T100; Kd from the equilibrium responses (Keq), 1:1 model, three titrations
Settings: both partners purified
// values below are reported Kd
Give the number; nM is assumed, so skip it.

Before answering, review these 3 worked examples.
KKRYSRDQLLAF (PHAGESOL with V10L and L12F; source: synthetic peptide (Mimotopes), HPLC purified to >90%) [VL-PHAGESOL-L12F peptide]    43.2
KKRYSREFLLAF (eIF4G1 peptide with D5 changed to S and G11 changed to A; source: synthetic peptide (Mimotopes), HPLC purified to >90%) [eIF4G1-OPT peptide]    52.2
KKRYSRDFLLAF (PHAGESOL with V10L, Q8F and L12F; source: synthetic peptide (Mimotopes), HPLC purified to >90%) [VL-PHAGESOL-Q8F/L12F peptide]    69.9

Okay, now this binder:
Query: Kd; subject: KKRYSRDFLVAF (PHAGESOL with Q8F and L12F; source: synthetic peptide (Mimotopes), HPLC purified to >90%) [PHAGESOL-Q8F/L12F peptide]
348

Ref: paper PMC3477164
